Data origin: patent US9168247B2

# Tested on: U373 cells
# Measurement notes: Cellular imaging (videomicroscopy) of cultured U373 cells: antiproliferative class and global growth ratio
# Assay type: cell-based, human
# Conditions: GG treated cells/GG control cells, 72 h after drug addition, drug at its IC50 (MTT-test determined)
# Protocol: […] The behaviour of the cells, in terms of morphology, growth and death are thus investigated. The effect on the overall growth is measured by counting the number of cells on the first (0 h) and the last image (72 h) of each film. […] The ratio GGRtreated cells/GGRcontrol cells is further calculated thereby providing a value that describes the effect of compounds of the present invention on the overall cell growth. […]
The following compounds are shown together with reported global growth ratio (GGR) values.

>  <Compound>
Cc1nccc2c3ccc(OCc4ccc(F)cc4)cc3n(Cc3ccc(F)cc3)c12 [CV11]

>  <global growth ratio (GGR)>
0.2

$$$$
>  <Compound>
Cc1nccc2c3ccc(OCc4cccc(F)c4)cc3n(Cc3cccc(F)c3)c12 [CV5]

>  <global growth ratio (GGR)>
0.9

$$$$
>  <Compound>
Cc1nccc2c1[nH]c1cc(OCc3ccncc3)ccc12 [JR222]

>  <global growth ratio (GGR)>
0.4

$$$$
>  <Compound>
Cc1c2c(cc[n+]1Cc1ccccc1F)c1ccc(OCc3cccc(F)c3)cc1n2Cc1cccc(F)c1.[Br-] [CV19]

>  <global growth ratio (GGR)>
0.2

$$$$
>  <Compound>
Cc1c2c(cc[n+]1Cc1ccc(F)cc1)c1ccc(OCc3cccc(F)c3)cc1n2Cc1cccc(F)c1.[Br-] [CV22]

>  <global growth ratio (GGR)>
0.5

$$$$
>  <Compound>
Cc1nccc2c1[nH]c1cc(OCCCC(F)(F)F)ccc12 [JR110]

>  <global growth ratio (GGR)>
0.2

$$$$
>  <Compound>
Cc1nccc2c1[nH]c1cc(OCc3cccc4ccccc34)ccc12 [JR147]

>  <global growth ratio (GGR)>
0.2

$$$$
>  <Compound>
Cc1nccc2c1[nH]c1cc(OCC3CCCCC3)ccc12 [JR167]

>  <global growth ratio (GGR)>
0.1

$$$$
>  <Compound>
Cc1c2c(cc[n+]1Cc1ccccc1F)c1ccc(OCc3ccccc3)cc1n2Cc1ccccc1.[Br-] [CV18]

>  <global growth ratio (GGR)>
0.3

$$$$

* * *

# Tested on: human cancer cell lines (U373, T98G, Hs683, OE21, OE33)
# Measurement notes: MTT test, mean over the cancer cell lines
# Assay type: cell-based
# Conditions: Homo sapiens; mean over the cancer cell lines, MTT test; read-out: IC50 Mean ± SEM
The following compounds are shown together with reported log10 of IC50 values.
Outcome measure: log10 of IC50 (log10 of the value in nM)

>  <Compound>
Cc1c2c(cc[n+]1Cc1ccc(F)cc1)c1ccc(OCc3ccccc3)cc1n2Cc1ccccc1.[Br-] [CV17]

>  <log10 of IC50>
3.08

$$$$
>  <Compound>
Cc1c2c(cc[n+]1Cc1ccc(F)cc1)c1ccc(OCc3cccc(F)c3)cc1n2Cc1cccc(F)c1.[Br-] [CV22]

>  <log10 of IC50>
3.43

$$$$
>  <Compound>
CCCn1c2cc(OCc3ccccc3)ccc2c2ccnc(C)c21 [CV33]

>  <log10 of IC50>
4.32

$$$$
>  <Compound>
Cc1c2c(cc[n+]1Cc1ccccc1F)c1ccc(OCc3ccccc3)cc1n2Cc1ccccc1.[Br-] [CV18]

>  <log10 of IC50>
2.68

$$$$
>  <Compound>
Cc1c2c(cc[n+]1CCC(C)C)c1ccc(OCc3ccccc3)cc1n2Cc1ccccc1 [PL2]

>  <log10 of IC50>
2.78

$$$$
